// reported one-hybrid fitness for binding parS DNA for each item listed
B1: Caulobacter ParB omega fusion; a variant is named by its letters at X, in order, B8GW30 (parent)
chain: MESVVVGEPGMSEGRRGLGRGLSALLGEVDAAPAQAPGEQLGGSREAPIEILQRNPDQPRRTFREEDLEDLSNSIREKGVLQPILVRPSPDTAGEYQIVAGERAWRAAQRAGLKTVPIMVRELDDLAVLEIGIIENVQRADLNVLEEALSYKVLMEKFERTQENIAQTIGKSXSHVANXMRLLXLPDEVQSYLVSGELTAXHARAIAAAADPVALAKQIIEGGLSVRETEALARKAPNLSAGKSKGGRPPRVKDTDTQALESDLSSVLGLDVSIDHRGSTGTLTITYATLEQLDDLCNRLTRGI

Variants of: B1
Assay: one-hybrid fitness for binding parS DNA (scaled: cognate 1, non-cognate 0); higher = stronger binding
Settings: with parS DNA site
The full ranking holds about 81,000 sequences; the median of “one-hybrid fitness for binding parS DNA” is about -0.17, and the highest 2% start at about 0.51. For the sample, the highest values were picked, then their nearest neighbours and some sequences at random.
Observable: one-hybrid fitness for binding parS DNA

Mutant code	Observable	Assay value
RSLT	one-hybrid fitness for binding parS DNA	0.846
RILG	one-hybrid fitness for binding parS DNA	0.993
RHVP	one-hybrid fitness for binding parS DNA	≤ 0.2
KAHG	one-hybrid fitness for binding parS DNA	≤ 0.2
RVKG	one-hybrid fitness for binding parS DNA	0.941
NFKC	one-hybrid fitness for binding parS DNA	≤ 0.2
RSLP	one-hybrid fitness for binding parS DNA	≤ 0.2
PSKI	one-hybrid fitness for binding parS DNA	≤ 0.2
QFAT	one-hybrid fitness for binding parS DNA	≤ 0.2
TRRD	one-hybrid fitness for binding parS DNA	≤ 0.2
RHKG	one-hybrid fitness for binding parS DNA	0.879
PMRC	one-hybrid fitness for binding parS DNA	≤ 0.2
TSTW	one-hybrid fitness for binding parS DNA	≤ 0.2
LFLC	one-hybrid fitness for binding parS DNA	≤ 0.2
RTIT	one-hybrid fitness for binding parS DNA	0.813
RILT	one-hybrid fitness for binding parS DNA	0.89
RQSA	one-hybrid fitness for binding parS DNA	0.575
RPLT	one-hybrid fitness for binding parS DNA	≤ 0.2
KQSA	one-hybrid fitness for binding parS DNA	≤ 0.2
RTPY	one-hybrid fitness for binding parS DNA	0.221
RQAA	one-hybrid fitness for binding parS DNA	0.571
RSAS	one-hybrid fitness for binding parS DNA	0.998
RILD	one-hybrid fitness for binding parS DNA	≤ 0.2
DQAA	one-hybrid fitness for binding parS DNA	≤ 0.2
QTTK	one-hybrid fitness for binding parS DNA	≤ 0.2
YPAT	one-hybrid fitness for binding parS DNA	≤ 0.2
RMLT	one-hybrid fitness for binding parS DNA	0.974
AANM	one-hybrid fitness for binding parS DNA	≤ 0.2
HFGL	one-hybrid fitness for binding parS DNA	≤ 0.2
PPVE	one-hybrid fitness for binding parS DNA	≤ 0.2
DHRG	one-hybrid fitness for binding parS DNA	≤ 0.2
EQAA	one-hybrid fitness for binding parS DNA	≤ 0.2
RANR	one-hybrid fitness for binding parS DNA	≤ 0.2
RFKC	one-hybrid fitness for binding parS DNA	0.991
RIEK	one-hybrid fitness for binding parS DNA	≤ 0.2
RQRA	one-hybrid fitness for binding parS DNA	0.632
RSAD	one-hybrid fitness for binding parS DNA	≤ 0.2
RILF	one-hybrid fitness for binding parS DNA	0.269
RANK	one-hybrid fitness for binding parS DNA	≤ 0.2
RHKD	one-hybrid fitness for binding parS DNA	≤ 0.2
REET	one-hybrid fitness for binding parS DNA	≤ 0.2
RTPT	one-hybrid fitness for binding parS DNA	0.558
RMLD	one-hybrid fitness for binding parS DNA	≤ 0.2
GDDG	one-hybrid fitness for binding parS DNA	≤ 0.2
DKKR	one-hybrid fitness for binding parS DNA	≤ 0.2
RCAS	one-hybrid fitness for binding parS DNA	1.01
